Consider the following binders and their measured Trimeric HA Binding: RLU readings.
# testSystem: recombinant homotrimeric HA A/Solomon Islands/3/06 H1N1 (Influenza A virus A/Solomon Islands/3/2006(H1N1))
# methodNotes: protein microarray, purified IgG, trimeric HA
# experimentalConditions: remark: other sources report otherwise
Don't forget the unit after the value.

Below are worked cases with known answers.
{"columns": ["binder", "observedMeasurement"],
 "data": [
  ["TCN-535 (5246_P19) (antibody, V domains shown) VH: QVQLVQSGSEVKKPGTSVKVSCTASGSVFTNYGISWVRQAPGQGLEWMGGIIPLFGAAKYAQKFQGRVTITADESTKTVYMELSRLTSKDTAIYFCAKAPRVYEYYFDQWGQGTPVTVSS VL: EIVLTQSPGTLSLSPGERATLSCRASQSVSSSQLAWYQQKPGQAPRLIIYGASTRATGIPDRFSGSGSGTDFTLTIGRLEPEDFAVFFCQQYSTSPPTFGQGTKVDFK", "11300 RLU"],
  ["TCN-555 (5246_L16) (antibody, V domains shown) VH: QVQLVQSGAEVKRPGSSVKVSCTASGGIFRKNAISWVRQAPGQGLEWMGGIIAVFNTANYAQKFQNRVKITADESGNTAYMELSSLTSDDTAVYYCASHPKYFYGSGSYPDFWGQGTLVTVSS VL: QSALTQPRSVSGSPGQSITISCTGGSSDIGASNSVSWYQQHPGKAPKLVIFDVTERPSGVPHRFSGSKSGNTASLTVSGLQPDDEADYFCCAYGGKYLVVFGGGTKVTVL", "17900 RLU"],
  ["TCN-526 (5084_C17) (antibody, V domains shown) VH: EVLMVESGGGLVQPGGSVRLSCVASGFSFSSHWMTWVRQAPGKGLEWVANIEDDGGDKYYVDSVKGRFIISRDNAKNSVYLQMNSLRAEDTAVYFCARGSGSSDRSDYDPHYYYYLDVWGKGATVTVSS VL: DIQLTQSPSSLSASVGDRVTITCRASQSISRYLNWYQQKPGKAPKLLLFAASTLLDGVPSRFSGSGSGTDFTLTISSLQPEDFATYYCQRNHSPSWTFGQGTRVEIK", "804 RLU"]
]}

Query :: I'd like to know its Trimeric HA Binding: RLU. The binder in question is TCN-557 (5081_A04) (antibody, V domains shown) VH: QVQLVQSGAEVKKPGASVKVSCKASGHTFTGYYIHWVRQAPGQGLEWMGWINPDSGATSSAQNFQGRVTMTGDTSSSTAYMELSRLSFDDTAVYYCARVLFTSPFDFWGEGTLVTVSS VL: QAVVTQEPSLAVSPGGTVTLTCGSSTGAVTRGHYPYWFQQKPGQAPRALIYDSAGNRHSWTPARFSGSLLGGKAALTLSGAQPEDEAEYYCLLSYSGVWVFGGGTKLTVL
Result :: 22700 RLU

Query :: Which Trimeric HA Binding: RLU reading was recorded for the binder TCN-550 (5096_F06) (antibody, V domains shown) VH: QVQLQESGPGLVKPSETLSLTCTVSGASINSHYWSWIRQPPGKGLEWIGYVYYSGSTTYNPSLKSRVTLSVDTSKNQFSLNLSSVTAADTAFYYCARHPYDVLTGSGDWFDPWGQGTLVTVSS VL: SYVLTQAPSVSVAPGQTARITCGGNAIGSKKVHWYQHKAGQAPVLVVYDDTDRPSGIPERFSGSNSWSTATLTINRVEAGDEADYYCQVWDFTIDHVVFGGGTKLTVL ?
Result :: 752 RLU

Query :: I have this binder here, TCN-534 (5249_B02) (antibody, V domains shown) VH: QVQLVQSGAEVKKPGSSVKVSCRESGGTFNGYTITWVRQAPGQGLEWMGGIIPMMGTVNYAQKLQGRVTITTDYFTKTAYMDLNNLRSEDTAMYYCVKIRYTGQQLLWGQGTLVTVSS VL: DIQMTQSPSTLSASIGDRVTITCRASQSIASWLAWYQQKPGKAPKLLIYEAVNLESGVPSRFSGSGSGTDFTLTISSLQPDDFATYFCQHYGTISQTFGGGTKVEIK , and I need its recorded Trimeric HA Binding: RLU.
Result :: 11400 RLU

Query :: // query Trimeric HA Binding: RLU value for entry TCN-532 (5262_H18) (antibody, V domains shown) VH: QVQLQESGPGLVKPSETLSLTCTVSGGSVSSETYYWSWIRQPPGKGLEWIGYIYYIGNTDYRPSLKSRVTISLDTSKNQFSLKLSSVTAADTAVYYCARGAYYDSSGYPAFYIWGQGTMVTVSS VL: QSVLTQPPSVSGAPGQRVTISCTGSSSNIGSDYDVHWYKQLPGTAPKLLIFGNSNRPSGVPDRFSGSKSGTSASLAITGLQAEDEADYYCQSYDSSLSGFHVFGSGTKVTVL
Result :: 571 RLU

Query :: Which measured Trimeric HA Binding: RLU value corresponds to TCN-523 (5248_A17) (antibody, V domains shown) VH: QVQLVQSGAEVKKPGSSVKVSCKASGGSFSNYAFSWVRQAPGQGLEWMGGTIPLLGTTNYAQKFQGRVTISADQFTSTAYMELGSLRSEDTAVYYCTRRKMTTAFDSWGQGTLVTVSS VL: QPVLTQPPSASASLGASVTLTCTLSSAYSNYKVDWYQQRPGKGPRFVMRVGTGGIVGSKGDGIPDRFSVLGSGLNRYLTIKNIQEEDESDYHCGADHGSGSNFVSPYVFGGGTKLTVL ?
Result :: 5130 RLU
